Please go through the items and note down their solubility.
experiment: Solubility of the compound in saline; type: physicochemical

Each of the following entries comes with a recorded value; kindly state solubility for each.
1. CNC(=N)NCCC[C@H](NC(=O)[C@H](CC(C)C)NC(=O)NNC(=O)[C@H](Cc1ccccc1)NC(=O)c1ccccc1)C(=O)N[C@@H](Cc1c[nH]c2ccccc12)C(N)=O
2. CNC(=N)NCCC[C@H](NC(=O)[C@H](CC(C)C)NC(=O)NNC(=O)[C@H](Cc1ccccc1)NC(=O)c1ccncc1)C(=O)N[C@@H](Cc1c[nH]c2ccccc12)C(N)=O

Reply text:
["< 100 µg/mL", "> 1000 µg/mL"]

Where do the numbers come from? From ChEMBL document CHEMBL4330106.
